# Test Target: NMDA receptor glycine site (glycine enhanced [3H]-MK-801 binding) (Rattus norvegicus, UniProt P35439)
# Construct: thawed and extensively washed rat cerebral membrane homogenate; from tissue; host or cells: rat cerebrum, extensively washed membrane homogenate
# Protocol: Antagonism of glycine enhanced [3H]-MK-801 binding (Test 2)
# Recorded Conditions: Schild analysis; [3H]-MK-801 1 nM, glutamate 300 nM, rat cerebral membrane, 23° C., 60 min, pH 7.40
pKi: −log10 of the molar value.
Measurement Name: pKi

Compound | Experimental Value
O=C(O)Cn1c(=O)c(=O)[nH]c2cc(Br)c(Br)cc21 | 6.41
CCCCC(C(=O)O)n1c(=O)c(=O)[nH]c2cc(Cl)c(Cl)cc21 (centres unmarked) | 7.00
CC(C(=O)O)n1c(=O)c(=O)[nH]c2ccccc21 (centres unmarked) | 6.05
O=C(O)Cn1c(=O)c(=O)[nH]c2cc(Cl)ccc21 | 5.47
O=C(O)Cn1c(=O)c(=O)[nH]c2cc(Cl)c(Cl)cc21 | 6.79
CCCC(C(=O)O)n1c(=O)c(=O)[nH]c2ccccc21 (centres unmarked) | 5.72
CCCCCC(C(=O)O)n1c(=O)c(=O)[nH]c2cc(Br)ccc21 (centres unmarked) | 7.31
Cc1cc2[nH]c(=O)c(=O)n(CC(=O)O)c2cc1C | 6.67
CCCCC(C(=O)O)n1c(=O)c(=O)[nH]c2ccccc21 (centres unmarked) | 6.11
O=C(O)Cn1c(=O)c(=O)[nH]c2cc(Br)ccc21 | 6.90
O=C(O)Cn1c(=O)c(=O)[nH]c2cc(F)c(F)cc21 | 6.93
